- Assay system: Low Density Lipoprotein Receptor (LDLR), recombinant (UniProt P01130 22-788)
- Measurement protocol: SPR; HBS + 0.005% P20, DMPC complex
Quantity measured: pKd
Formally, pKd is defined as -log10 of the concentration c, with c in mol/L.

// worked examples, pKd included
T-114 (peptide) peptide: LKDFGERVARALREQFEDLGQSTEELRVRLASHLRKLRKRLLRDADDLQKRLAVYQA	6.77
T-117 (peptide) peptide: RSGADALESALKELKRFIREWTLGQSTEELRVRLASHLRKLRKRLLRDADDLQKRLAVYQA	8.00

# context switch: different binder, same pKd
The binder listed as T-118 (peptide) peptide: LVARLLKELTAAMARLGRDAEDIRGNLFQYFDEVWAMLGQSTEELRVRLASHLRKLRKRLLRDADDLQKRLAVYQA has a reported pKd of 4.03

Sourced from patent US20260115250A1
